Could you please report measured MIC for the items listed next?
system: Escherichia coli; assay: Antimicrobial activity against Escherichia coli J53 harboring pEK499 plasmid encoding CTX-M extended-spectrum beta-lactamases; format: functional
Report the value in mg/L with no unit label.

Reported MIC of NC[C@H]1O[C@H](O[C@H]2[C@H](O)[C@@H](O[C@H]3O[C@H](CO)[C@@H](O)[C@H](N)[C@H]3O)[C@H](N)C[C@@H]2N)[C@H](N)C[C@@H]1O [TOBRAMYCIN] : 8

Reported MIC of CC(C)(O/N=C(\C(=O)N[C@@H]1C(=O)N2C(C(=O)[O-])=C(C[n+]3ccccc3)CS[C@H]12)c1csc(N)n1)C(=O)O [CEFTAZIDIME] : 64

Reported MIC of CN(C)c1ccc(O)c2c1C[C@H]1C[C@H]3[C@H](N(C)C)C(O)=C(C(N)=O)C(=O)[C@@]3(O)C(O)=C1C2=O [MINOCYCLINE] : 2

Reported MIC of CO/N=C(\C(=O)N[C@@H]1C(=O)N2C(C(=O)O)=C(COC(C)=O)CS[C@H]12)c1csc(N)n1 [CEFOTAXIME] : 256

* * *

system: Escherichia coli; test: Antimicrobial activity against Escherichia coli J53 harboring pEK499 plasmid encoding CTX-M extended-spectrum beta-lactamases; assay type: functional
Recorded Metric: MIC (mg/L)
Report the value in mg/L with no unit label.

Summary line: NCC[C@H](O)C(=O)N[C@@H]1C[C@H](N)[C@@H](O[C@H]2O[C@H](CN)[C@@H](O)[C@H](O)[C@H]2O)[C@H](O)[C@H]1O[C@H]1O[C@H](CO)[C@@H](O)[C@H](N)[C@H]1O [AMIKACIN] , Escherichia coli, reported MIC = 4

Summary line: CO[C@@]1(NC(=O)Cc2cccs2)C(=O)N2C(C(=O)O)=C(COC(N)=O)CS[C@@H]21 [CEFOXITIN] , Escherichia coli, reported MIC = 8

* * *

system: Escherichia coli; assay: Antimicrobial activity against Escherichia coli DH5[alpha] in presence of beta-lactamase inhibitor clavulanic acid; assay type: functional
Recorded Metric: MIC

Reported MIC of CO/N=C(\C(=O)N[C@@H]1C(=O)N2C(C(=O)O)=C(COC(C)=O)CS[C@H]12)c1csc(N)n1 : ≤ 0.06 µg/mL

Reported MIC of CC1(C)S[C@@H]2[C@H](NC(=O)[C@H](N)c3ccc(O)cc3)C(=O)N2[C@H]1C(=O)O : 8 µg/mL

Reported MIC of CO/N=C(\C(=O)N[C@@H]1C(=O)N2C(C(=O)[O-])=C(C[n+]3cccc4c3CCC4)CS[C@H]12)c1csc(N)n1 : ≤ 0.06 µg/mL

Reported MIC of CC(C)(O/N=C(\C(=O)N[C@@H]1C(=O)N2C(C(=O)[O-])=C(C[n+]3ccccc3)CS[C@H]12)c1csc(N)n1)C(=O)O : 0.25 µg/mL
